# reported MIC; entries follow
- Test system: N. gonorrheae
- Experiment summary: In vitro activity against Neisseria (MIC), N. gonorrheae
- Format: cell-based
- Measurement setup: N. gonorrheae A20155; Compound 9 lot 2

Query smiles: N[C@@H](C(=O)N[C@@H]1C(=O)N2C(C(=O)O)=C(Cl)CS[C@H]12)c1ccccc1
Inequality operator: =
MIC, µg/mL: 0.8
//
Query smiles: CC1=C(C(=O)O)N2C(=O)[C@@H](NC(=O)[C@H](N)c3ccc(O)cc3)[C@H]2SC1
Inequality operator: =
MIC, µg/mL: 6.3
//
Query smiles: C/C=C\C1=C(C(=O)O)N2C(=O)[C@@H](NC(=O)[C@H](N)c3ccc(O)cc3)[C@H]2SC1
Inequality operator: =
MIC, µg/mL: 0.8
//
Query smiles: N[C@@H](C(=O)N[C@@H]1C(=O)N2C(C(=O)O)=C(/C=C\Cc3ccccc3)CS[C@H]12)c1ccc(O)cc1
Inequality operator: >
MIC, µg/mL: 100

###

Here the recorded Cmax is given for each entry.
- Experiment summary: in vivo
- Measurement setup: mouse, im, 20 mg/kg, Cmax

Query smiles: N[C@@H](C(=O)N[C@@H]1C(=O)N2C(C(=O)O)=C(/C=C\Cc3ccccc3)CS[C@H]12)c1ccc(O)cc1
Cmax [ng/mL]: 31000
--
Query smiles: C/C=C\C1=C(C(=O)O)N2C(=O)[C@@H](NC(=O)[C@H](N)c3ccc(O)c(O)c3)[C@H]2SC1
Cmax [ng/mL]: 86000
--
Query smiles: COC/C=C\C1=C(C(=O)O)N2C(=O)[C@@H](NC(=O)[C@H](N)c3ccc(O)cc3)[C@H]2SC1
Cmax [ng/mL]: 24000
--
Query smiles: C=CC1=C(C(=O)O)N2C(=O)[C@@H](NC(=O)[C@H](N)c3ccc(O)cc3)[C@H]2SC1
Cmax [ng/mL]: 23000
--
Query smiles: N[C@@H](C(=O)N[C@@H]1C(=O)N2C(C(=O)O)=C(C=CCSc3cnn[nH]3)CS[C@H]12)c1ccc(O)cc1
Cmax [ng/mL]: 16000
--
Query smiles: C/C=C\C1=C(C(=O)O)N2C(=O)[C@@H](NC(=O)[C@H](N)c3ccc(O)cc3)[C@H]2SC1
Cmax [ng/mL]: 28000
--
Query smiles: C/C=C\C1=C(C(=O)O)N2C(=O)[C@@H](NC(=O)[C@H](N)c3ccc(O)c(Cl)c3)[C@H]2SC1
Cmax [ng/mL]: 21000

###

The following compounds are shown together with reported AUC values.
- Experiment summary: in vivo
- Measurement setup: mouse, im, 20 mg/kg, AUC*
Reported metric: AUC

Compound: COC/C=C\C1=C(C(=O)O)N2C(=O)[C@@H](NC(=O)[C@H](N)c3ccc(O)cc3)[C@H]2SC1 [Compound 17]
Recorded value: 19000 ng·h/mL
//
Compound: C/C=C/C1=C(C(=O)O)N2C(=O)[C@@H](NC(=O)[C@H](N)c3ccc(O)cc3)[C@H]2SC1 [Compound 8]
Recorded value: 31000 ng·h/mL
//
Compound: C=CC1=C(C(=O)O)N2C(=O)[C@@H](NC(=O)[C@H](N)c3ccc(O)cc3)[C@H]2SC1 [Compound 11]
Recorded value: 15000 ng·h/mL
//
Compound: N[C@@H](C(=O)N[C@@H]1C(=O)N2C(C(=O)O)=C(C=CCSc3cnn[nH]3)CS[C@H]12)c1ccc(O)cc1 [Compound 21]
Recorded value: 9600 ng·h/mL
//
Compound: N[C@@H](C(=O)N[C@@H]1C(=O)N2C(C(=O)O)=C(/C=C\Cc3ccccc3)CS[C@H]12)c1ccc(O)cc1 [Compound 15]
Recorded value: 52000 ng·h/mL
//
Compound: CC1=C(C(=O)O)N2C(=O)[C@@H](NC(=O)[C@H](N)c3ccc(O)cc3)[C@H]2SC1 [Cefadroxil]
Recorded value: 14000 ng·h/mL
//
Compound: C/C=C\C1=C(C(=O)O)N2C(=O)[C@@H](NC(=O)[C@H](N)c3ccc(O)c(O)c3)[C@H]2SC1 [Compound 37]
Recorded value: 233000 ng·h/mL
//
Compound: C/C=C\C1=C(C(=O)O)N2C(=O)[C@@H](NC(=O)[C@H](N)c3ccc(O)c(Cl)c3)[C@H]2SC1 [Compound 32]
Recorded value: 13000 ng·h/mL
//
Compound: C/C=C\C1=C(C(=O)O)N2C(=O)[C@@H](NC(=O)[C@H](N)c3ccccc3)[C@H]2SC1 [Compound 24]
Recorded value: 22000 ng·h/mL

###

- Experiment summary: in vivo
- Measurement setup: mouse, po, 100 mg/kg, T1/2

Query smiles: C/C=C\C1=C(C(=O)O)N2C(=O)[C@@H](NC(=O)[C@H](N)c3ccc(O)cc3)[C@H]2SC1
half-life: 114 min

Query smiles: CC1=C(C(=O)O)N2C(=O)[C@@H](NC(=O)[C@H](N)c3ccc(O)cc3)[C@H]2SC1
half-life: 138 min

Query smiles: C/C=C/C1=C(C(=O)O)N2C(=O)[C@@H](NC(=O)[C@H](N)c3ccc(O)cc3)[C@H]2SC1
half-life: 84 min

Query smiles: CC/C=C\C1=C(C(=O)[O-])N2C(=O)[C@@H](NC(=O)[C@H](N)c3ccc(O)cc3)[C@H]2SC1.[Na+]
half-life: 114 min

###

- Experiment summary: in vivo
- Measurement setup: mouse, po, 20 mg/kg, AUC*, Run 1, * mean of 3 runs

Query smiles: CC/C=C\C1=C(C(=O)[O-])N2C(=O)[C@@H](NC(=O)[C@H](N)c3ccc(O)cc3)[C@H]2SC1.[Na+]
AUC (ng·h/mL): 41000

###

- Experiment summary: in vivo
- Measurement setup: mouse, po, 20 mg/kg, T1/2
Could you please mark true for values of half-life below 100 min and false for values at or above it?

Query smiles: N[C@@H](C(=O)N[C@@H]1C(=O)N2C(C(=O)O)=C(C=CCSc3cnn[nH]3)CS[C@H]12)c1ccc(O)cc1
Answer label: false
//
Query smiles: C/C=C\C1=C(C(=O)O)N2C(=O)[C@@H](NC(=O)[C@H](N)c3ccccc3)[C@H]2SC1
Answer label: true
//
Query smiles: C/C=C/C1=C(C(=O)O)N2C(=O)[C@@H](NC(=O)[C@H](N)c3ccc(O)cc3)[C@H]2SC1
Answer label: true
//
Query smiles: N[C@@H](C(=O)N[C@@H]1C(=O)N2C(C(=O)O)=C(/C=C\Cc3ccccc3)CS[C@H]12)c1ccc(O)cc1
Answer label: false
//
Query smiles: CC/C=C\C1=C(C(=O)[O-])N2C(=O)[C@@H](NC(=O)[C@H](N)c3ccc(O)cc3)[C@H]2SC1.[Na+]
Answer label: false
//
Query smiles: C/C=C\C1=C(C(=O)O)N2C(=O)[C@@H](NC(=O)[C@H](N)c3ccc(O)c(O)c3)[C@H]2SC1
Answer label: false
//
Query smiles: C=CC1=C(C(=O)O)N2C(=O)[C@@H](NC(=O)[C@H](N)c3ccc(O)cc3)[C@H]2SC1
Answer label: true
//
Query smiles: CC1=C(C(=O)O)N2C(=O)[C@@H](NC(=O)[C@H](N)c3ccc(O)cc3)[C@H]2SC1
Answer label: true
//
Query smiles: COC/C=C\C1=C(C(=O)O)N2C(=O)[C@@H](NC(=O)[C@H](N)c3ccc(O)cc3)[C@H]2SC1
Answer label: true
//
Query smiles: C/C=C\C1=C(C(=O)O)N2C(=O)[C@@H](NC(=O)[C@H](N)c3ccc(O)cc3)[C@H]2SC1
Answer label: false

###

- Experiment summary: in vivo
- Measurement setup: mouse, im, 20 mg/kg, T1/2
Reported metric: half-life (min)

Molecule: C/C=C\C1=C(C(=O)O)N2C(=O)[C@@H](NC(=O)[C@H](N)c3ccc(O)c(Cl)c3)[C@H]2SC1 [Compound 32]
U: min
Recorded value: 28.8

Molecule: C=CC1=C(C(=O)O)N2C(=O)[C@@H](NC(=O)[C@H](N)c3ccc(O)cc3)[C@H]2SC1 [Compound 11]
U: min
Recorded value: 22.2

Molecule: CC/C=C\C1=C(C(=O)[O-])N2C(=O)[C@@H](NC(=O)[C@H](N)c3ccc(O)cc3)[C@H]2SC1.[Na+]
U: min
Recorded value: 44.4

Molecule: N[C@@H](C(=O)N[C@@H]1C(=O)N2C(C(=O)O)=C(/C=C\Cc3ccccc3)CS[C@H]12)c1ccc(O)cc1 [Compound 15]
U: min
Recorded value: 59.4

Molecule: C/C=C/C1=C(C(=O)O)N2C(=O)[C@@H](NC(=O)[C@H](N)c3ccc(O)cc3)[C@H]2SC1 [Compound 8]
U: min
Recorded value: 37.8

Molecule: C/C=C\C1=C(C(=O)O)N2C(=O)[C@@H](NC(=O)[C@H](N)c3ccccc3)[C@H]2SC1 [Compound 24]
U: min
Recorded value: 30

Molecule: COC/C=C\C1=C(C(=O)O)N2C(=O)[C@@H](NC(=O)[C@H](N)c3ccc(O)cc3)[C@H]2SC1 [Compound 17]
U: min
Recorded value: 36

Molecule: N[C@@H](C(=O)N[C@@H]1C(=O)N2C(C(=O)O)=C(C=CCSc3cnn[nH]3)CS[C@H]12)c1ccc(O)cc1 [Compound 21]
U: min
Recorded value: 32.4

Molecule: C/C=C\C1=C(C(=O)O)N2C(=O)[C@@H](NC(=O)[C@H](N)c3ccc(O)c(O)c3)[C@H]2SC1 [Compound 37]
U: min
Recorded value: 72

Molecule: CC1=C(C(=O)O)N2C(=O)[C@@H](NC(=O)[C@H](N)c3ccc(O)cc3)[C@H]2SC1 [Cefadroxil]
U: min
Recorded value: 19.8

Molecule: C/C=C\C1=C(C(=O)O)N2C(=O)[C@@H](NC(=O)[C@H](N)c3ccc(O)cc3)[C@H]2SC1 [Compound 9]
U: min
Recorded value: 52.8
